Hey, just so you know, these numbers are from paper PMC11784839.

biological target: tau (Homo sapiens, UniProt P10636); assay: MCE Phenols Library screening, tau biosensor cell seeding assay (AvZ); format: cell-based; conditions: raw puncta, replicate 1
Sequence (P10636 623-695 limits assumed): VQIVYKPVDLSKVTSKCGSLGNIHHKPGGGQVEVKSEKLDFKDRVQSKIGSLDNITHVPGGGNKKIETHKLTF
Recorded raw data 1 by entry
Form rule: numeric answer, no unit written next to it.

Check out these entries, answers already filled in.
CC(C)=CCc1c(-c2ccc(O)cc2O)oc2c3c(cc(O)c2c1=O)OC(C)(C)C=C3    19129.3
COc1ccc(-c2cc(=O)c3c(O)c(OC)c(O)c(OC)c3o2)cc1    19746.6
COc1cc(CCC(O)CC(O)CCc2ccc(O)c(OC)c2)ccc1O (centres unmarked) [Octahydrocurcumin]    18628.3
CCCCCCC[C@H](O)CC(=O)CCc1ccc(O)c(OC)c1    27124.2
COC(=O)[C@@H](Cc1ccc(O)c(O)c1)OC(=O)/C=C/c1ccc(O)c(O)c1 [Methyl rosmarinate]    23459.6
O=C1c2ccccc2C(=O)c2c(O)c(O)cc(O)c21    27004.8
COc1cc(CCC(=O)CC(=O)CCc2ccc(O)c(OC)c2)ccc1O [Tetrahydrocurcumin]    29921.4
OC[C@H]1O[C@@H](Oc2cc(O)ccc2/C=C/c2cc(O)cc(O)c2)[C@H](O)[C@@H](O)[C@@H]1O [Oxyresveratrol 2-O-?-D-glucopyranoside]    16039.6

Form: molecule = "Oc1cc(O)c2c(c1)O[C@H](c1ccc(O)c(O)c1)[C@@H](O)[C@H]2O" ; raw data 1 = 24584.1

Form: molecule = "COc1cc(O)c(C(=O)/C=C/c2ccc(O)cc2)c(OC)c1" ; raw data 1 = 18356

====

Recorded av puncta by entry
molecular target: tau (Homo sapiens, UniProt P10636); experiment: MCE Phenols Library screening, tau biosensor cell seeding assay (AvZ); assay type: cell-based; details: average of raw data 1 and 2

Check out these entries, answers already filled in.
C[C@@H]1O[C@@H](Oc2cc(O)c3c(=O)c(O)c(-c4ccc(O)cc4)oc3c2O)[C@H](O)[C@H](O)[C@H]1O [Rhodionin]    6714.99
CC(C)=CCc1cc(-c2coc3cc(O)ccc3c2=O)ccc1O [Neobavaisoflavone]    21263.5
COc1c(O)cc(O)c2c(=O)cc(-c3ccccc3)oc12 [Wogonin]    30607.4
O=C(O)c1cccc(O)c1 [3-Hydroxybenzoic acid]    10365.4

Form: compound = C[C@@H]1O[C@@H](O[C@H]2[C@H](Oc3cc(O)c4c(=O)cc(-c5ccc(O)cc5)oc4c3)O[C@H](CO)[C@@H](O)[C@@H]2O)[C@H](O)[C@H](O)[C@H]1O [Rhoifolin] ; av puncta = 24460.4

Form: compound = O=c1cc(-c2ccccc2)oc2cccc(O)c12 [5-Hydroxyflavone] ; av puncta = 7440.82

Form: compound = COC(=O)c1cc(O)c(O)c(O)c1 [Methyl gallate] ; av puncta = 4412

Form: compound = COc1cc(O)c(C(=O)/C=C/c2ccc(O)cc2)cc1CC=C(C)C [4'-O-Methylbavachalcone] ; av puncta = 18915.2

====

target: tau (Homo sapiens, UniProt P10636); test: MCE Phenols Library screening, tau biosensor cell seeding assay (AvZ); type: cell-based; settings: Z score, replicate 2
Measured endpoint: Z Repl 2
Form rule: numeric answer, no unit written next to it.

Form: molecule = "CCCC(=O)c1c(O)c(Cc2c(O)c(Cc3c(O)c(C)c(OC)c(C(=O)CCC)c3O)c(O)c(C(=O)[C@@H](C)CC)c2O)c(O)c(C)c1OC" ; Z Repl 2 = -0.722

Form: molecule = CC(C(=O)c1ccc(O)cc1O)c1ccc(O)cc1 (stereo not shown) ; Z Repl 2 = -0.221

Form: molecule = "Oc1cc(O)c2c(c1)O[C@@]1(c3ccc(O)c(O)c3)Oc3cc(O)c4c(c3[C@@H]2[C@H]1O)O[C@H](c1ccc(O)c(O)c1)[C@@H](O)C4" ; Z Repl 2 = 0.572

====

Recorded av Z by entry
biological target: tau (Homo sapiens, UniProt P10636); assay: MCE Phenols Library screening, tau biosensor cell seeding assay (AvZ); format: cell-based; conditions: average Z score of the two replicates, MCE Phenols Library screen
Form rule: numeric answer, no unit written next to it.

Form: molecule = Oc1cc(O)cc(/C=C/c2ccc(O)cc2O)c1 [Oxyresveratrol] ; av Z = -0.372

Form: molecule = Oc1cc(O)c2ccc(-c3ccc(O)c(O)c3)[o+]c2c1.[Cl-] [Luteolinidin (chloride)] ; av Z = -1.053

Form: molecule = Oc1ccc(/C=C/c2cc(O)cc(O)c2)cc1 [Resveratrol] ; av Z = -0.586

Form: molecule = OC[C@H]1O[C@@H](Oc2cc3c(O)cc(O)cc3[o+]c2-c2ccc(O)c(O)c2)[C@H](O[C@@H]2OC[C@@H](O)[C@H](O)[C@H]2O)[C@@H](O)[C@@H]1O.[Cl-] [Cyanidin 3-sambubioside (chloride)] ; av Z = -0.566

Form: molecule = CC=C1[C@H](O[C@@H]2O[C@H](CO)[C@@H](O)[C@H](O)[C@H]2O)OC=C(C(=O)OC)[C@H]1CC(=O)OC[C@H]1O[C@@H](OCCc2ccc(O)cc2)[C@H](O)[C@@H](O)[C@@H]1O (stereo in doubt) [Specneuzhenide] ; av Z = -0.42

Form: molecule = O=C(/C=C/c1ccc(O)cc1)C1=C(O)C(O)([C@@H]2O[C@H](CO)[C@@H](O)[C@H](O)[C@H]2O)C(O)=C([C@@H]2O[C@H](CO)[C@@H](O)[C@H](O)[C@H]2O)C1=O (stereo partly drawn) [Hydroxysafflor yellow A] ; av Z = -0.627

====

Recorded raw data 2 by entry
target: tau (Homo sapiens, UniProt P10636); test: MCE Phenols Library screening, tau biosensor cell seeding assay (AvZ); format: cell-based; details: puncta, replicate 2
Form rule: numeric answer, no unit written next to it.

O=C1C[C@@H](c2ccc(O)c(O)c2)Oc2c1ccc(O[C@@H]1O[C@H](CO)[C@@H](O)[C@H](O)[C@H]1O)c2O    7451.23
O=c1cc(-c2ccc(O)cc2)oc2cc(O[C@@H]3O[C@H](CO)[C@@H](O)[C@H](O)[C@H]3O)cc(O)c12 [Apigenin 7-glucoside]    8807.12
CC(C)=CC[C@@H](OC(=O)CC(C)(C)O)C1=CC(=O)c2c(O)ccc(O)c2C1=O [?-Hydroxyisovalerylshikonin]    5582.9
O=C1c2ccccc2C(=O)c2c1cc(O)c(CO)c2O    5643.99
COc1ccc2c(c1)OC[C@@H](c1cc(O)c(OC)c(OC)c1O)C2 [Colutehydroquinone]    23431.8

Form: compound = COc1cc(/C=C/C(=O)OCC[N+](C)(C)C)cc(OC)c1O.N#C[S-] [Sinapine (thiocyanate)] ; raw data 2 = 11751.4

Form: compound = "COc1ccc(-c2oc3c(CC=C(C)C)c(O)cc(O)c3c(=O)c2O)cc1" ; raw data 2 = 19486

Form: compound = "COc1cc(O)cc(O)c1C(=O)/C=C/c1ccccc1" ; raw data 2 = 14251.5

====

molecular target: tau (Homo sapiens, UniProt P10636); test: MCE Phenols Library screening, tau biosensor cell seeding assay (AvZ); type: cell-based; details: average Z score of the two replicates, MCE Phenols Library screen
# av Z >= -0.6 gives class 1, anything below gives class 0

The following compounds have reported results that may help.
O=C(C=Cc1ccc(O)c(O)c1)OC1CC(O)(C(=O)O)CC(O)C1OC(=O)C=Cc1ccc(O)c(O)c1 (stereo not drawn)    class 0
Cc1cc(=O)c2c(O)cc(O)cc2o1    class 1
O=C(/C=C/c1ccc(O)cc1)c1ccccc1 [4-Hydroxychalcone]    class 1
O=c1c(-c2ccc(O)cc2)coc2c([C@@H]3O[C@H](CO[C@@H]4OC[C@@H](O)[C@H](O)[C@H]4O)[C@@H](O)[C@H](O)[C@H]3O)c(O)ccc12 [Puerarin 6''-O-Xyloside]    class 1

Test whether the compound "COc1cc2c(cc1O)-c1c(OC)c(O)cc3c1[C@H](C2)NCC3" records av Z of -0.6 or higher.
class 1

Test whether the compound "Cc1cc(O)c2c(c1)C(=O)c1cc(O)cc(O)c1C2=O" records av Z of -0.6 or higher.
class 1

Test whether the compound "O=C(/C=C/c1ccc(O)c(O)c1)c1ccc(O)c(O)c1O" records av Z of -0.6 or higher.
class 0

====

Recorded Z Repl 2 by entry
target: tau (Homo sapiens, UniProt P10636); test: MCE Phenols Library screening, tau biosensor cell seeding assay (AvZ); format: cell-based; conditions: Z score, replicate 2
Form rule: numeric answer, no unit written next to it.

Check out these entries, answers already filled in.
COc1cc(CNC(=O)CCCCCC(C)C)ccc1O [Nordihydrocapsaicin]    -0.682
O=C(O[C@@H]1Cc2c(O)cc(O)cc2O[C@@H]1c1ccc(O)c(O)c1)c1cc(O)c(O)c(O)c1 [(-)-Epicatechin gallate]    -0.434
O=c1ccoc2cc(O)ccc12 [7-Hydroxy-4H-chromen-4-one]    -0.619

Form: compound = COc1cc(/C=C/C(=O)[O-])ccc1O.[Na+] [Ferulic acid (sodium)] ; Z Repl 2 = -0.257

Form: compound = "C=CCc1ccc(O)c(-c2cc(CC=C)ccc2O)c1" ; Z Repl 2 = 1.074

Form: compound = COc1cc(CCO[C@@H]2O[C@H](CO[C@@H]3O[C@H](CO)[C@@H](O)[C@H](O)[C@H]3O)[C@@H](OC(=O)/C=C/c3ccc(O)c(O)c3)[C@H](O[C@@H]3O[C@@H](C)[C@H](O)[C@@H](O)[C@H]3O)[C@H]2O)ccc1O [Cistanoside A] ; Z Repl 2 = -0.502

Form: compound = "O=c1cc(-c2ccc(O)c(O)c2)oc2cc(O)c([C@@H]3O[C@H](CO)[C@@H](O)[C@H](O)[C@H]3O)c(O)c12" ; Z Repl 2 = 0.042
